Every entry's value here was drawn from patent US9359308B2.

- Tgt: full length active recombinant SYK enzyme (Homo sapiens)
- Construct: full length active recombinant SYK enzyme (Millipore, Calif.)
- Experimental Details: Inhibition of Syk tyrosine phosphorylation activity (LANCE TR-FRET kinase assay)
- Condition Details: activity in the Syk assays, class symbols
pIC50: −log10 of the molar value.
So I've got a bunch of molecules here, and I need their pIC50 values.

Input line: Need pIC50 of NC(=O)c1ncc(N[C@@H]2CCCC[C@@H]2N)nc1Nc1cccc(-c2ncccn2)c1 , thanks.
Output line: 8.00 to 9.00

Input line: Need pIC50 of NC(=O)c1ncc(N[C@@H]2CCCC[C@@H]2N)nc1Nc1snc2ccccc12 , thanks.
Output line: > 9.00

Input line: Need pIC50 of NC(=O)c1ncc(N[C@@H]2CCCC(F)(F)[C@@H]2N)nc1Nc1ccc2c(c1)CCC(=O)N2 , thanks.
Output line: 8.00 to 9.00

Input line: Need pIC50 of CC(=O)N1CCN(c2ccc(Nc3cnc(C(N)=O)c(NC4CC4)n3)cc2)CC1 , thanks.
Output line: < 6.00

Input line: Need pIC50 of NC(=O)c1ncc(N[C@@H]2CCCC(F)(F)[C@@H]2N)nc1Nc1ccc2nc(N3CCC3)oc2c1 , thanks.
Output line: 7.00 to 8.00

Input line: Need pIC50 of CC(C)[C@@H](Nc1cnc(C(N)=O)c(Nc2cc(F)c3ncccc3c2)n1)C(N)=O , thanks.
Output line: 8.00 to 9.00

Input line: Need pIC50 of NC(=O)c1ncc(N[C@@H]2CCCC[C@@H]2N)nc1Nc1ccc(-n2ccccc2=O)cc1 , thanks.
Output line: 7.00 to 8.00

Input line: Need pIC50 of CC[C@@H](Nc1cnc(C(N)=O)c(Nc2ccc3nccn3c2)n1)C(N)=O , thanks.
Output line: 8.00 to 9.00

Input line: Need pIC50 of CC(C)[C@@H](Nc1cnc(C(N)=O)c(Nc2cnc3cccnc3c2)n1)C(N)=O , thanks.
Output line: 7.00 to 8.00

###

So I've got a bunch of compounds here, and I need their IC50 values.
- Tgt: full length active recombinant SYK enzyme (Homo sapiens)
- Construct: full length active recombinant SYK enzyme (Millipore, Calif.)
- Experimental Details: Inhibition of Syk tyrosine phosphorylation activity (LANCE TR-FRET kinase assay)
- Condition Details: activity in the Syk assays, class symbols
- Method: The in vitro and in vivo human Syk activities of the inventive compounds can be determined by various procedures known in the art, such as a test for their ability to inhibit the activity of human plasma Syk. […] Potency of candidate molecules for inhibiting Syk tyrosine phosphorylation activity is assessed by measuring the ability of a test compound to inhibit Syk-mediated tyrosine phosphorylation of a Syk-specific substrate. […]

Input line: Need IC50 of CC(C)(C)[C@@H](Nc1cnc(C(N)=O)c(Nc2cnc3ccc(F)cc3c2)n1)C(N)=O , thanks.
Output line: 1 to 10 nM

Input line: Need IC50 of CC(C)C[C@@H](Nc1cnc(C(N)=O)c(Nc2ccc(C(=O)N(C)C)cc2)n1)C(N)=O , thanks.
Output line: 10 to 100 nM

Input line: Need IC50 of CN1Cc2cc(Nc3nc(N[C@@H]4CCCC[C@@H]4N)cnc3C(N)=O)ccc2C1=O , thanks.
Output line: < 1 nM

Input line: Need IC50 of NC(=O)c1ncc(N[C@H](CC(F)(F)F)C(N)=O)nc1Nc1cnc2cccnc2c1 , thanks.
Output line: 1 to 10 nM

Input line: Need IC50 of Cc1cc(Nc2nc(N[C@@H](C(N)=O)C(C)C)cnc2C(N)=O)sn1 , thanks.
Output line: 1 to 10 nM

Input line: Need IC50 of NC(=O)c1ncc(N[C@@H]2CCCC[C@@H]2N)nc1Nc1ccc(N2CCOCC2=O)c(F)c1 , thanks.
Output line: 10 to 100 nM

Input line: Need IC50 of COc1ccc(Nc2nc(N[C@@H]3CCCC[C@@H]3N)cnc2C(N)=O)cn1 , thanks.
Output line: 1 to 10 nM

Input line: Need IC50 of COc1ccc(Nc2nc(N[C@@H](C(N)=O)C(C)C)cnc2C(N)=O)cc1OC , thanks.
Output line: 10 to 100 nM

Input line: Need IC50 of CS(=O)(=O)c1ccc(Nc2nc(N[C@@H]3CCCC[C@@H]3N)cnc2C(N)=O)cc1 , thanks.
Output line: 1 to 10 nM

Input line: Need IC50 of NC(=O)c1ncc(N[C@@H]2CCNC2)nc1Nc1ccc2ncccc2c1 , thanks.
Output line: 1 to 10 nM

Input line: Need IC50 of NC(=O)c1ncc(N[C@H](Cc2ccccc2)C(N)=O)nc1Nc1ccc2ncccc2c1 , thanks.
Output line: 1 to 10 nM

Input line: Need IC50 of NC(=O)c1ncc(N[C@@H]2CCCC(F)(F)[C@@H]2N)nc1Nc1cccc(F)c1 , thanks.
Output line: 10 to 100 nM

Input line: Need IC50 of CC(C)C[C@@H](Nc1cnc(C(N)=O)c(Nc2cccc3c2ccn3C)n1)C(N)=O , thanks.
Output line: 1 to 10 nM

Input line: Need IC50 of NC(=O)c1ncc(N[C@@H]2CCCC[C@@H]2N)nc1Nc1cccc(-n2nccn2)c1 , thanks.
Output line: 1 to 10 nM

Input line: Need IC50 of CCc1cc(Nc2nc(N[C@@H]3CCCC(F)(F)[C@@H]3N)cnc2C(N)=O)sn1 , thanks.
Output line: 10 to 100 nM

Input line: Need IC50 of NC(=O)c1ncc(N[C@@H]2CCCC[C@@H]2N)nc1Nc1cnsc1 , thanks.
Output line: 10 to 100 nM

Input line: Need IC50 of COc1cncc(Nc2nc(N[C@H](CC(C)(C)C)C(N)=O)cnc2C(N)=O)c1 , thanks.
Output line: 1 to 10 nM

Input line: Need IC50 of NC(=O)c1ncc(N[C@H](Cc2cccs2)C(N)=O)nc1Nc1cnc2cccnc2c1 , thanks.
Output line: 1 to 10 nM

Input line: Need IC50 of COc1ccc(Nc2nc(N[C@@H]3CCCC(F)(F)[C@@H]3N)cnc2C(N)=O)cc1OC , thanks.
Output line: 1 to 10 nM

Input line: Need IC50 of NC(=O)c1ncc(N[C@@H]2CCCC(F)(F)[C@@H]2N)nc1Nc1ccc(C2CC2)nc1 , thanks.
Output line: 10 to 100 nM

Input line: Need IC50 of NC(=O)c1ncc(N[C@@H]2CCCC[C@@H]2N)nc1Nc1cnn(CC2CC2)c1 , thanks.
Output line: 10 to 100 nM

Input line: Need IC50 of CC(C)C[C@@H](Nc1cnc(C(N)=O)c(Nc2ccc(C(=O)N3CC(C#N)C3)nc2)n1)C(N)=O , thanks.
Output line: 1 to 10 nM

Input line: Need IC50 of CC[C@@H](Nc1cnc(C(N)=O)c(Nc2ccnc(C(F)(F)F)c2)n1)C(N)=O , thanks.
Output line: 10 to 100 nM

Input line: Need IC50 of CC(C)C[C@@H](Nc1cnc(C(N)=O)c(Nc2cncc(C(F)(F)F)c2)n1)C(N)=O , thanks.
Output line: 10 to 100 nM

Input line: Need IC50 of CC[C@@H](Nc1cnc(C(N)=O)c(Nc2ccnc(F)c2)n1)C(N)=O , thanks.
Output line: 10 to 100 nM

Input line: Need IC50 of Cc1ccc(Nc2nc(N[C@@H](C(N)=O)C(C)C)cnc2C(N)=O)cc1 , thanks.
Output line: 10 to 100 nM

Input line: Need IC50 of CC[C@@H](Nc1cnc(C(N)=O)c(Nc2csc3ncccc23)n1)C(N)=O , thanks.
Output line: 1 to 10 nM

Input line: Need IC50 of Cc1cccc(Nc2nc(N[C@@H]3CCNC3)cnc2C(N)=O)c1 , thanks.
Output line: 1 to 10 nM
